Tested on: HCC70
Experiment: Cell proliferation, MTT assay
Assay type: cell-based
Conditions: Homo sapiens, 72 h; HCC70, 3-day treatment; read-out: Anti-proliferative activity EC50
QUANTITY MEASURED: EC50 (µM)

1) CC(C)N(CCCNC(=O)Nc1ccc(C(C)(C)C)cc1)C[C@H]1O[C@@H](n2ccc3c(N)ncnc32)[C@H](O)[C@@H]1O	20

---

Tested on: A549
Assay: Cell proliferation, MTT assay
Format: cell-based, Human
Details: Homo sapiens, 72 h; A549, 3-day treatment; read-out: Anti-proliferative activity EC50
QUANTITY MEASURED: EC50 (µM)

1. CC(C)N(CCCNC(=O)Nc1ccc(C(C)(C)C)cc1)C[C@H]1O[C@@H](n2ccc3c(N)ncnc32)[C@H](O)[C@@H]1O [Compound 1, EPZ004777]	19
